Tested on: Wolbachia pipientis
Protocol Notes: Anti-Wolbachia Cell-Based Screen
Type: functional
Set-up: scale not given: in the data most compounds retested in dose-response had high values
Test Parameters: 5 µM
The campaign covered roughly 48,000 compounds. About 13,000 (27%) showed an effect of 50% or more. The list shows a part of the results.
Readout Type: Percent Effect (%)

{"columns": ["Molecule", "Assay System", "Number"],
 "data": [
  ["Cc1nc(C(=O)N2CCN(c3ccc(Cl)c(Cl)c3)CC2)cs1", "Wolbachia pipientis", 99.9],
  ["O=C(CCc1nc2cccnc2[nH]1)Nc1cccnc1", "Wolbachia pipientis", 5.191],
  ["COc1cccc(CNC(=O)N2CCN(Cc3cc(C)on3)CC2)c1", "Wolbachia pipientis", -11.4],
  ["CC(c1cccc(-c2ncc(C#N)c(N)n2)c1)N(C)C (stereo not drawn)", "Wolbachia pipientis", 111.9],
  ["O=C1CSc2ccc(C(=O)N3CCCC(n4cccn4)C3)cc2N1 (stereo not drawn)", "Wolbachia pipientis", 11.58],
  ["CN1CCN(CCO)C(=O)C12CCN(c1nccs1)CC2", "Wolbachia pipientis", 3.933],
  ["O=S(=O)(Cc1ccc(F)cc1)N1CCN(CC(O)C2CC2)CC1 (stereo not drawn)", "Wolbachia pipientis", -13.11],
  ["CNC(=O)[C@@H]1CCO[C@@H]2CCN(C3CCOCC3)C[C@@H]21.O=C(O)C(F)(F)F", "Wolbachia pipientis", -5.14],
  ["O=C(NC1CC1)[C@@H]1CCO[C@@H]2CCN(CCc3ccccc3)C[C@@H]21.O=C(O)C(F)(F)F", "Wolbachia pipientis", 121.8],
  ["CC1COc2ccccc2N1C(=O)CCc1cscn1 (stereo not drawn)", "Wolbachia pipientis", -5.764],
  ["CC(C)c1nccn1C1CCCN(C(=O)c2ccnc(N(C)C)c2)C1 (stereo not drawn)", "Wolbachia pipientis", -0.8202],
  ["CNC(=O)[C@@H]1CCO[C@@H]2CCN(CCc3ccccc3)C[C@H]21.O=C(O)C(F)(F)F", "Wolbachia pipientis", 100.2],
  ["Cc1nc(C)n(C2CCCN(C(=O)c3cc(C(N)=O)cs3)C2)n1 (stereo not drawn)", "Wolbachia pipientis", 0.8263],
  ["Cc1nc(C(=O)N2CCN(C(C)c3ccccc3F)CC2)cs1 (stereo not drawn)", "Wolbachia pipientis", -7.061],
  ["CC(C)c1nccn1C1CCCN(C(=O)c2cc(C(N)=O)cs2)C1 (stereo not drawn)", "Wolbachia pipientis", 117.7],
  ["O=C(NCCn1cccn1)Nc1cc(C(=O)N2CCOCC2)ccc1Cl", "Wolbachia pipientis", -1.545],
  ["O=C(NC1CCC1)[C@@H]1CCO[C@@H]2CCN(CCc3ccccc3)C[C@H]21.O=C(O)C(F)(F)F", "Wolbachia pipientis", 10.39],
  ["CC(c1cccc(-c2ccc(C(=O)O)cc2Cl)c1)N(C)C (stereo not drawn)", "Wolbachia pipientis", -4.101],
  ["CSc1ccccc1CN1C[C@H]2CC[C@@H]1CN(Cc1[nH]cnc1C)C2", "Wolbachia pipientis", -3.423],
  ["COc1ccnc(N2CCN(C(=O)c3csc(C4CC4)n3)CC2)n1", "Wolbachia pipientis", 22.41],
  ["Cl.Cl.OC(CN1CCN(Cc2cc(F)cc(F)c2)CC1)C1CC1 (stereo not drawn)", "Wolbachia pipientis", -3.47],
  ["CC(C)Cc1ncc2c(n1)CN(c1cc(N)nc(N)n1)C2", "Wolbachia pipientis", 16.38],
  ["O=C(NC[C@H]1OC[C@@H](NC2CCC(F)(F)CC2)[C@@H]1O)C1CCCC1", "Wolbachia pipientis", 8.921],
  ["Cc1nc(C(=O)Nc2cc(N3CCNC3=O)ccc2Cl)cs1", "Wolbachia pipientis", -12.33],
  ["O=C(CS(=O)(=O)Cc1ccc(Br)cc1F)Nc1cn[nH]c1", "Wolbachia pipientis", -22.34],
  ["COc1ccc(CNC(=O)N2CCN(CC(O)C3CC3)CC2)cc1.Cl (stereo not drawn)", "Wolbachia pipientis", 99.74],
  ["CC(c1cccc(-c2nccn2CCc2cn[nH]c2)c1)N(C)C (stereo not drawn)", "Wolbachia pipientis", 8.832],
  ["O=C(NCC1CC1)[C@@H]1CCO[C@@H]2CCN(Cc3ccc(F)cc3)C[C@H]21.O=C(O)C(F)(F)F", "Wolbachia pipientis", -1.927],
  ["CCn1cc2c(n1)C(COC)CN(C(=O)COc1ccccc1C)C2 (stereo not drawn)", "Wolbachia pipientis", -8.136],
  ["Cc1noc(C)c1CN1CC[C@H]2OCC[C@@H](C(=O)NCC3CC3)[C@H]2C1.O=C(O)C(F)(F)F", "Wolbachia pipientis", -0.6103],
  ["CC(c1cccc(-c2ncccc2F)c1)N(C)C (stereo not drawn)", "Wolbachia pipientis", 118.4],
  ["NC(=O)c1csc(C(=O)N2CCCC(n3ccnc3)C2)c1 (stereo not drawn)", "Wolbachia pipientis", 4.502],
  ["O=C(O)C(F)(F)F.O=C([C@H]1COC[C@H]2CN(C3CCCC3)C[C@H]21)N1CCCCO1", "Wolbachia pipientis", -5.445],
  ["Cc1cc(C)n(C2CCCN(C(=O)c3cc(C(N)=O)cs3)C2)n1 (stereo not drawn)", "Wolbachia pipientis", 143.1],
  ["CCCS(=O)(=O)N1CC[C@H]2O[C@H](c3nnc(C)o3)CC[C@H]21", "Wolbachia pipientis", -25.7],
  ["Cl.Cl.O=C(CN1CCN(CC(O)C2CC2)CC1)NCc1ccc(F)cc1 (stereo not drawn)", "Wolbachia pipientis", 3.1],
  ["CN(C)C(=O)c1ccc(CNc2c(Cl)cccc2C#N)cc1", "Wolbachia pipientis", -8.933],
  ["CN(C)C(=O)[C@@H]1CCO[C@@H]2CCN(Cc3ccccc3)C[C@@H]21.O=C(O)C(F)(F)F", "Wolbachia pipientis", -6.959],
  ["Cn1nc2c(cc1=O)CN(Cc1nnc(-c3ccc(F)cc3)o1)CC2", "Wolbachia pipientis", -3.918],
  ["Cc1ccc(C(=O)O)cc1-c1cccc(C(C)N(C)C)c1 (stereo not drawn)", "Wolbachia pipientis", -7.98],
  ["NC(=O)c1csc(C(=O)N2CCCC(n3cccn3)C2)c1 (stereo not drawn)", "Wolbachia pipientis", 118.9],
  ["CCC(C)(NCC(=O)NC(C)C)c1nc(C)cs1 (stereo not drawn)", "Wolbachia pipientis", 4.424],
  ["CNc1snc(C)c1C(=O)N1CCCC(n2nc(C)cc2C)C1 (stereo not drawn)", "Wolbachia pipientis", -4.797]
]}
